- assay-comment: Anticoagulant activity was determined in Ortho-activated thrombofax (APTT) assay at a dose 9.4 uM in human dead plasma
- Type: functional
metric: APTT (s)
Value expressed in s; do not type the unit.

Input line: Value lookup for APTT; key = N=C(N)SCCOc1oc(=O)c2cc(NC(=O)Nc3ccccc3)ccc2c1Cl
Output line: 47.7

Input line: # input molecule: N=C(N)SCCOc1oc(=O)c2cc(NC(=O)NCc3ccccc3)ccc2c1Cl ; wanted: its APTT
Output line: 60.1

Input line: # APTT lookup, item N=C(N)SCCOc1oc(=O)c2cc(NC(=O)CCc3ccccc3)ccc2c1Cl
Output line: 52.4

Input line: Can you look up the measured APTT of C[C@H](NC(=O)Nc1ccc2c(Cl)c(OCCSC(=N)N)oc(=O)c2c1)c1ccccc1 for me?
Output line: 57.6
